Data provenance is patent US9067943B2.

// reported log10 EC50 per item
biological target: human CB2 receptors (Homo sapiens); construct: expressed in transfected cells; host or cells: CHO cells; test: cAMP assay; assay type: cell-based
Sequence (P34972 whole entry): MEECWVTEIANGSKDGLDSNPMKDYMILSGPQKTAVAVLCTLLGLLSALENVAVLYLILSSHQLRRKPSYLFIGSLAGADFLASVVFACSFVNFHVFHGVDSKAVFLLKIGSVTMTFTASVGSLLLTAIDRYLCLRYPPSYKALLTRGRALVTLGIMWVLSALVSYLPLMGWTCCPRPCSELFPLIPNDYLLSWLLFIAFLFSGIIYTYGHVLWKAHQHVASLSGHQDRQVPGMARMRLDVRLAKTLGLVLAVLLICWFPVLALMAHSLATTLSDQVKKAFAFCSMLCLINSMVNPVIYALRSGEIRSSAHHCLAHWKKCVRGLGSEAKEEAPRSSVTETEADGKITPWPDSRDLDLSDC
Readout: log10 EC50 (log10 of the value in nM)

INSERT INTO assay_data (smiles, result) VALUES
  ('CC(C)(C)c1nc(N2CCC(F)(F)C2)c2nn(Cc3nccc(Cl)c3Cl)nc2n1', 0.41),
  ('C[C@H](Oc1nc(N2CCC(F)(F)C2)c2nn(Cc3nnnn3C3CC3)nc2n1)C(F)(F)F', 1.69),
  ('CC(C)(C)c1nc(N2CC[C@H](O)C2)c2nn(Cc3ncccc3Cl)nc2n1', 0.66),
  ('C[C@H](c1ccccc1Cl)n1nc2nc(C(C)(C)C)nc(N3CCC(F)(F)C3)c2n1', -0.70),
  ('CC(C)(C)Nc1nc(N2CCC(F)(F)C2)c2nn(Cc3ccccc3S(C)(=O)=O)nc2n1', 0.72),
  ('CC(C)(C)c1nc(N2CCC(F)(F)C2)c2nn(Cc3c(Cl)ccc(Cl)c3Cl)nc2n1', 0.94),
  ('CC(C)(C)c1nc(N2CCC(F)(F)C2)c2nn(CCc3ccccn3)nc2n1', 0.18),
  ('C[C@H](Oc1nc(N2CCC(F)(F)C2)c2nn(CCC(F)(F)F)nc2n1)C(F)(F)F', 0.92);

---

biological target: human CB2 receptors (Homo sapiens); construct: expressed in transfected cells; host or cells: CHO cells; experiment: cAMP assay; format: cell-based; settings: functional cAMP assay, CHO cells expressing human CB2; read-out: human CB2 EC50
pEC50: −log10 of the molar value.
Readout: pEC50

INSERT INTO results (compound, result) VALUES
  ('Cn1nnnc1Cn1nc2nc(C(C)(C)C)nc(N3CC[C@](C)(O)C3)c2n1 [Example 130-a]', 6.76),
  ('CC(=O)N[C@H]1CCN(c2nc(OCC(C)(C)C)nc3nn(Cc4ncccc4Cl)nc23)C1 [Example 135]', 6.22),
  ('CC(=O)N[C@H]1CCN(c2nc(OCC(C)(C)C)nc3nn(Cc4ccccc4Cl)nc23)C1 [Example 134]', 6.17),
  ('CC(C)(C)c1nc(N2CC[C@](C)(O)C2)c2nn(Cc3nnnn3C3CC3)nc2n1 [Example 133-a]', 6.90),
  ('Cc1nnc(Cn2nc3nc(C(C)(C)C)nc(N4CC[C@H](O)C4)c3n2)o1 [Example 87]', 6.59),
  ('Cn1nnnc1Cn1nc2nc(C(C)(C)C)nc(N3CC[C@@](C)(O)C3)c2n1 [Example 130-b]', 6.10),
  ('CC(C)(C)c1nc(N2CC[C@@](C)(O)C2)c2nn(Cc3nnnn3C3CC3)nc2n1 [Example 133-b]', 6.26),
  ('CC(C)(C)c1nc(N2CC[C@H](O)C2)c2nn(Cc3nnnn3C3CC3)nc2n1 [Example 94]', 6.60),
  ('CC(=O)N[C@H]1CCN(c2nc(NC(C)(C)C)nc3nn(Cc4ccccc4Cl)nc23)C1 [Example 144]', 5.71);

---

target: human CB1 receptors (Homo sapiens, UniProt P21554); construct: expressed in transfected cells; host or cells: CHO cells; test: cAMP assay; format: cell-based
Sequence (P21554 whole entry): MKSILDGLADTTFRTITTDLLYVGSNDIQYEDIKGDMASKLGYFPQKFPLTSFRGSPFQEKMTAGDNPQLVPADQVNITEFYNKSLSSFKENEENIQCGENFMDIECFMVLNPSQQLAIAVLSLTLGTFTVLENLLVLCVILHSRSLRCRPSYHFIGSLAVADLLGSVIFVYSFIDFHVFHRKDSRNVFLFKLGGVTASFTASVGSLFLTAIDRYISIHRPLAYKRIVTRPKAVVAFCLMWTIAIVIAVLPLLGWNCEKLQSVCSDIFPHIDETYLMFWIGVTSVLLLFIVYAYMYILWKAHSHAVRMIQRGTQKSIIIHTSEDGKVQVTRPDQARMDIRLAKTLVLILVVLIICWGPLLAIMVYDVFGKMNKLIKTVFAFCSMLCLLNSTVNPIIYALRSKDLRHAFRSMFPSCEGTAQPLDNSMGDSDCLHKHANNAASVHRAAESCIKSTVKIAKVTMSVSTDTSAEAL
pEC50: −log10 of the molar value.
Readout: pEC50

INSERT INTO measurements (compound, result) VALUES
  ('CC(C)(C)Nc1nc(N2CCC(F)(F)C2)c2nn(Cc3ccccc3C(F)(F)F)nc2n1 [Example 136]', '< 5.00'),
  ('Cn1nncc1Cn1nc2nc(C(C)(C)C)nc(N3CC(F)(F)C(F)(F)C3)c2n1 [Example 104]', '< 5.00'),
  ('CN(C)c1c(Cl)cncc1Cn1nc2nc(C(C)(C)C)nc(N3CCC(F)(F)C3)c2n1 [Example 71]', 6.98),
  ('CC(C)Oc1nc(N2CC[C@H](O)C2)c2nn(Cc3ccccc3Cl)nc2n1 [Example 111]', '< 5.00'),
  ('COCCn1nc2nc(C(C)(C)C)nc(N3CCC(F)(F)C3)c2n1 [Example 4]', '< 5.00'),
  ('CC(C)(C)c1nc(N2CC3(COC3)C2)c2nn(Cc3ccccc3S(C)(=O)=O)nc2n1 [Example 107]', '< 5.00'),
  ('CC(C)(C)c1nc(N2CCC(F)(F)C2)c2nn(Cc3cc(Cl)cnc3Cl)nc2n1 [Example 37]', '< 5.00'),
  ('Cc1noc(Cn2nc3nc(C(C)(C)C)nc(N4CC[C@@](C)(O)C4)c3n2)n1 [Example 129-b]', '< 5.00'),
  ('CC(=O)N[C@H]1CCN(c2nc(O[C@@H](C)C(F)(F)F)nc3nn(Cc4ccccc4S(C)(=O)=O)nc23)C1 [Example 143]', '< 5.00'),
  ('Cn1nnnc1Cn1nc2nc(C(C)(C)C)nc(N3CC(F)(F)C(F)(F)C3)c2n1 [Example 102]', '< 5.00'),
  ('CC(C)(C)Nc1nc(N2CCC(F)(F)C2)c2nn(Cc3ccccc3S(C)(=O)=O)nc2n1 [Example 137]', '< 5.00'),
  ('Cn1nnnc1Cn1nc2nc(C(C)(C)C)nc(N3CC[C@](C)(O)C3)c2n1 [Example 130-a]', '< 5.00'),
  ('CC(C)(C)c1nc(N2CCC(F)(F)C2)c2nn(CC(=O)c3ccccn3)nc2n1 [Example 64]', '< 5.00'),
  ('Cc1nonc1Cn1nc2nc(O[C@@H](C)C(F)(F)F)nc(N3CCC(F)(F)C3)c2n1 [Example 121]', '< 5.00'),
  ('C[C@H](c1ccccc1Cl)n1nc2nc(C(C)(C)C)nc(N3CCC(F)(F)C3)c2n1 [Example 28]', 6.87),
  ('COc1ccccc1Cn1nc2nc(C(C)(C)C)nc(N3CCC(F)(F)C3)c2n1 [Example 23]', 7.07),
  ('CC(=O)N[C@H]1CCN(c2nc(NC(C)(C)C)nc3nn(Cc4ccccc4Cl)nc23)C1 [Example 144]', '< 5.00');

---

pEC50 values for the compounds below.
biological target: human CB2 receptors (Homo sapiens); construct: expressed in transfected cells; host or cells: CHO cells; assay: cAMP assay; type: cell-based
pEC50: −log10 of the molar value.
Readout: pEC50

INSERT INTO assay_data (smiles, result) VALUES
  ('CC(C)(C)c1nc(N2CCC(F)(F)C2)c2nn(Cc3cccnc3Cl)nc2n1', 9.30),
  ('CC(C)(C)c1nc(N2CCC(F)(F)C2)c2nn(CCc3cccnc3)nc2n1', 8.37),
  ('CC(C)(C)c1nc(N2CCC(F)(F)C2)c2nn(C3COC3)nc2n1', 7.72),
  ('Cc1nonc1Cn1nc2nc(C(C)(C)C)nc(N3CC[C@H](O)C3)c2n1', 8.15),
  ('COc1ccccc1Cn1nc2nc(C(C)(C)C)nc(N3CCC(F)(F)C3)c2n1', 9.70),
  ('Cc1nc(Cn2nc3nc(C(C)(C)C)nc(N4CCC(F)(F)C4)c3n2)no1', 8.89),
  ('CC(C)(C)c1nc(N2CCC(F)(F)C2)c2nn(Cc3nnnn3C3CC3)nc2n1', 8.30),
  ('CN(C)c1c(Cl)cncc1Cn1nc2nc(C(C)(C)C)nc(N3CCC(F)(F)C3)c2n1', 8.85),
  ('Cn1nncc1Cn1nc2nc(C(C)(C)C)nc(N3CC[C@H](O)C3)c2n1', 7.39),
  ('CC(C)(C)c1nc(N2CCC(F)(F)C2)c2nn(Cc3ccccc3C#N)nc2n1', 10.00),
  ('CC(C)(C)c1nc(N2CCC(F)(F)C2)c2nn(Cc3ccc(Cl)cc3)nc2n1', 8.19),
  ('CC(C)(C)c1nc(N2CC[C@H](O)C2)c2nn(Cc3nccc(Cl)c3Cl)nc2n1', 7.99),
  ('CC(C)(C)c1nc(N2CCC(F)(F)C2)c2nn(Cc3ccc(F)cc3Cl)nc2n1', 9.00),
  ('COCCn1nc2nc(C(C)(C)C)nc(N3CCC(F)(F)C3)c2n1', 8.10),
  ('CC(C)(C)c1nc(N2CCC(F)(F)C2)c2nn(Cc3c(Cl)ccnc3Cl)nc2n1', 9.70),
  ('CC(C)(C)c1nc(N2CC3(COC3)C2)c2nn(Cc3ccccc3S(C)(=O)=O)nc2n1', 8.08),
  ('Cn1nnnc1Cn1nc2nc(C(C)(C)C)nc(N3CC[C@@H](O)C3)c2n1', 5.78),
  ('CC(C)(C)c1nc(N2CCC(F)(F)C2)c2nn(CCc3cccc(Cl)c3)nc2n1', 7.97);

---

biological target: human CB1 receptors (Homo sapiens, UniProt P21554); construct: expressed in transfected cells; host or cells: CHO cells; assay: cAMP assay; assay type: cell-based
pEC50: −log10 of the molar value.
Reported pEC50 values for the following compounds.
Readout: pEC50

INSERT INTO assay_data (compound, result) VALUES
  ('CC(C)(C)c1nc(N2CC[C@@](C)(O)C2)c2nn(Cc3ncccc3Cl)nc2n1 [Example 127-b]', 6.22),
  ('CC(C)(C)c1nc(N2CC[C@@](C)(O)C2)c2nn(Cc3ccccc3C(F)(F)F)nc2n1 [Example 125-b]', '< 5.00'),
  ('CC(C)(C)c1nc(N2CCC(F)(F)C2)c2nn(Cc3c(Cl)ccc(F)c3Cl)nc2n1 [Example 33]', '< 5.00'),
  ('CC(C)(C)c1nc(N2CC[C@H](O)C2)c2nn(Cc3cccnc3Cl)nc2n1 [Example 77]', '< 5.00'),
  ('CC(C)(C)c1nc(N2CC[C@H](O)C2)c2nn(Cc3cccc(Cl)c3Cl)nc2n1 [Example 78]', '< 5.00'),
  ('Cc1noc(Cn2nc3nc(C(C)(C)C)nc(N4CC[C@H](O)C4)c3n2)n1 [Example 74]', '< 5.00'),
  ('CC(C)(C)c1nc(N2CC[C@@](C)(O)C2)c2nn(Cc3nnnn3C3CC3)nc2n1 [Example 133-b]', '< 5.00'),
  ('CC(C)(C)c1nc(N2CCC(F)(F)C2)c2nn(Cc3cccc(C(F)(F)F)c3Cl)nc2n1 [Example 56]', '< 5.00'),
  ('CC(C)(C)c1nc(N2CC[C@H](O)C2)c2nn(Cc3cccnc3Nc3ccc([N+](=O)[O-])c4nonc34)nc2n1 [Example 93]', '< 5.00'),
  ('Cn1nncc1Cn1nc2nc(C(C)(C)C)nc(N3CCC(F)(F)C3)c2n1 [Example 82]', '< 5.00'),
  ('CC(C)(C)c1nc(N2CCC(F)(F)C2)c2nn(Cc3nnnn3C3CC3)nc2n1 [Example 92]', 5.80),
  ('CC(C)(C)c1nc(N2CCC(F)(F)C2)c2nn(Cc3cc(Cl)ccc3Cl)nc2n1 [Example 11]', '< 5.00'),
  ('CC(C)(C)c1nc(N2CCC(F)(F)C2)c2nn([C@@H]3CCOC3)nc2n1 [Example 45]', '< 5.00');
